biological target: JAK3 (Homo sapiens (Human), UniProt P52333); experiment: Jak Biochemical HTRF Assay (JAK3); details: recombinant GST-tagged catalytic domain, [ATP] 2.9 μM
Sequence (P52333 822-1111): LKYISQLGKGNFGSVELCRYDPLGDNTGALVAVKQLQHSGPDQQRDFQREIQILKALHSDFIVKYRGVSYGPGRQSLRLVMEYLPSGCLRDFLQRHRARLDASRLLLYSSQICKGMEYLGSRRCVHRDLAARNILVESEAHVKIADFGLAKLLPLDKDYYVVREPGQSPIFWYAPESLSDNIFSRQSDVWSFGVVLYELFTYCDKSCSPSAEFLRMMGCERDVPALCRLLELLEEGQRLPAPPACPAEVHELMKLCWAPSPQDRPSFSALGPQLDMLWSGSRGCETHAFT
assay metric: IC50 (nM)
One number for each entry, in nM.

smiles code	IC50, nM
CCOC(=O)c1c[nH]c2ncnc(-c3cccc(NC(=O)/C(C)=C/CN(C)C)c3)c12	6.6
COc1ccccc1-c1c[nH]c2ncnc(-c3ccc4cn(C)nc4c3)c12	6.9

Please find the next compound below.
The reported value for CCOC(=O)c1c[nH]c2ncnc(-c3ccc(Cl)c(N)c3)c12 in terms of IC50 is 7.5

====

biological target: JAK2 (Homo sapiens (Human)); assay: Jak Biochemical HTRF Assay (JAK2); settings: recombinant GST-tagged catalytic domain, [ATP] 8.5 μM; given as range class
Sequence (O60674 849-1124): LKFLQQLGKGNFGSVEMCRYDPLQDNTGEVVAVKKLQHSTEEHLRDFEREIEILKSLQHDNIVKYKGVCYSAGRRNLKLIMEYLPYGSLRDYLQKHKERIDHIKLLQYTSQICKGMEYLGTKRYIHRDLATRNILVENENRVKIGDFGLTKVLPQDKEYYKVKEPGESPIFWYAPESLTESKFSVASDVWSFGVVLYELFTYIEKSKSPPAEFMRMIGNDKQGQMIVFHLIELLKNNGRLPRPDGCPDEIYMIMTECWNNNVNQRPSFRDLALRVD
assay metric: IC50

Solved cases below.
compound	assay metric	result value
CCOC(=O)c1c[nH]c2ncnc(-c3ccc4scnc4c3)c12 [Example 1-82]	IC50	0.01 to 0.5 µM
C=C(C)C(=O)Nc1cccc(-c2ncnc3[nH]cc(-c4ccc(CN)cc4)c23)c1 [Example 19]	IC50	> 0.5 µM
CCOC(=O)c1c[nH]c2ncnc(-c3ccc4c(c3)C(=O)NC4)c12 [Example 1-75]	IC50	> 0.5 µM
CCOC(=O)c1c[nH]c2ncnc(-c3cccc(N(C)S(C)(=O)=O)c3)c12 [Example 1-102]	IC50	> 0.5 µM
CCOC(=O)c1c[nH]c2ncnc(-c3cccs3)c12 [Example 1-56]	IC50	0.01 to 0.5 µM

// batch mode: one IC50 value per listed entry
1. CCOC(=O)c1c[nH]c2ncnc(-c3ccc(Cl)cc3)c12 [Example 1-2]
2. CCOC(=O)c1c[nH]c2ncnc(-c3cccc(-n4cccn4)c3)c12 [Example 1-103]
3. c1ccc(COc2cccc(-c3c[nH]c4ncnc(-c5ccccc5)c34)c2)cc1 [Example 32-5]
4. CCOC(=O)c1c[nH]c2ncnc(-c3cccc4ccsc34)c12 [Example 1-61]
5. CCOC(=O)c1c[nH]c2ncnc(-c3cccc(C(=O)OC)c3)c12 [Example 1-8]
6. CCOC(=O)c1c[nH]c2ncnc(-c3ccc4[nH]nc(C(F)(F)F)c4c3)c12 [Example 1-72]
7. CCOC(=O)c1c[nH]c2ncnc(-c3ccc(C(=O)OC)cc3)c12 [Example 1-9]

["0.01 to 0.5 µM", "> 0.5 µM", "> 0.5 µM", "> 0.5 µM", "> 0.5 µM", "> 0.5 µM", "> 0.5 µM"]

// batch mode: one IC50 value per listed entry
1. CCOC(=O)c1c[nH]c2ncnc(-c3cccc(NC(=O)CC#N)c3)c12 [Example 5-4]
2. CCOC(=O)c1c[nH]c2ncnc(-c3ccc4c(c3)CN(C(=O)OC(C)(C)C)C4=O)c12 [Example 1-77]
3. CCOC(=O)c1c[nH]c2ncnc(-c3cccc(NC(=O)/C=C/c4cccnc4)c3)c12 [Example 5-30]
4. CCOC(=O)c1c[nH]c2ncnc(-c3cccc(NC(=O)/C(C)=C/c4ccccc4)c3)c12 [Example 5-43]
5. C=C(C)C(=O)N(C)c1cccc(-c2ncnc3[nH]cc(C4CCOCC4)c23)c1 [Example 24]
6. CCOC(=O)c1c[nH]c2ncnc(-c3cccc(C(N)=O)c3)c12 [Example 1-12]
7. CCOC(=O)c1c[nH]c2ncnc(-c3cnc4[nH]ccc4c3)c12 [Example 1-84]
8. CCOC(=O)c1c[nH]c2ncnc(-c3ccc(C)c(NCC(F)(F)F)c3)c12 [Example 3-2]

1. 0.01 to 0.5 µM
2. > 0.5 µM
3. > 0.5 µM
4. > 0.5 µM
5. > 0.5 µM
6. > 0.5 µM
7. 0.01 to 0.5 µM
8. > 0.5 µM

// batch mode: one IC50 value per listed entry
1. CC/C=C/C(=O)Nc1cccc(-c2ncnc3[nH]cc(C(=O)OCC)c23)c1 [Example 5-33]
2. COc1ccccc1-c1c[nH]c2ncnc(-c3cn[nH]c3)c12 [Example 33-6]
3. C/C=C(/OC)C(=O)Nc1cccc(-c2ncnc3[nH]cc(C(=O)OCC)c23)c1 [Example 5-38]
4. CCOC(=O)c1c[nH]c2ncnc(-c3cccc(Nc4nc(C#N)ns4)c3)c12 [Example 6-4]
5. CCOC(=O)c1c[nH]c2ncnc(-c3cccc4[nH]ncc34)c12 [Example 1-64]
6. COc1cccc(-c2ncnc3[nH]cc(-c4ccccc4OC)c23)c1 [Example 33-4]
7. CCOC(=O)c1c[nH]c2ncnc(-c3cccc(N)c3)c12 [Example 1-3]

1: > 0.5 µM; 2: 0.01 to 0.5 µM; 3: > 0.5 µM; 4: > 0.5 µM; 5: > 0.5 µM; 6: 0.01 to 0.5 µM; 7: > 0.5 µM

// batch mode: one IC50 value per listed entry
1. CCOC(=O)c1c[nH]c2ncnc(-c3cccc(NC(=O)/C=C\c4ccccc4OC)c3)c12 [Example 5-23]
2. CCOC(=O)c1c[nH]c2ncnc(-c3cccc(NC(=O)/C=C/c4cccc(OC)c4)c3)c12 [Example 5-24]
3. CCOC(=O)c1c[nH]c2ncnc(-c3cccc(OC(F)(F)F)c3)c12 [Example 1-26]

1. > 0.5 µM
2. > 0.5 µM
3. 0.01 to 0.5 µM

The reported value for CCOC(=O)c1c[nH]c2ncnc(-c3cccc(N4CCS(=O)(=O)CC4)c3)c12 [Example 1-95] in terms of IC50 is > 0.5 µM

====

target: JAK3 (Homo sapiens (Human), UniProt P52333); test: Jak Biochemical HTRF Assay (JAK3); conditions: recombinant GST-tagged catalytic domain, [ATP] 2.9 μM
Kindly supply the reported IC50 values for the records listed here.

// batch mode: one IC50 value per listed entry
1. C=C(C)C(=O)Nc1cccc(-c2ncnc3[nH]cc(-c4cccc(F)c4Cl)c23)c1 [Example 20-5]
2. C=C(C)C(=O)Nc1ccc(F)c(-c2ncnc3[nH]cc(C(=O)OCC)c23)c1 [Example 4-18]
3. C=C(C)C(=O)Nc1cc(-c2ncnc3[nH]cc(C(=O)OCC)c23)ccn1 [Example 4-35]
4. CCOC(=O)c1c[nH]c2ncnc(-c3cccc(Nc4nc(Cl)ns4)c3)c12 [Example 6-1]
5. CCOC(=O)c1c[nH]c2ncnc(-c3cccc(NC(=O)C4(C)CO4)c3)c12 (stereo not shown) [Example 18-1]
6. C=CC(=O)N(C)c1cccc(-c2ncnc3[nH]cc(C(=O)OCC)c23)c1 [Example 12-1]

1.5 nM
0.11 nM
0.049 nM
9.2 nM
0.056 nM
0.13 nM

The reported value for CCOC(=O)c1c[nH]c2ncnc(-c3cccc(NC(=O)/C=C/CN(C)C)c3)c12 [Example 16] in terms of IC50 is 0.2 nM

====

Kindly supply the reported pIC50 values for the records listed here.
biological target: JAK2 (Homo sapiens (Human)); assay: Jak Biochemical HTRF Assay (JAK2); details: recombinant GST-tagged catalytic domain, [ATP] 8.5 μM
pIC50: −log10 of the molar value.

Solved cases below.
molecule	assay metric	result value
CCOC(=O)c1c[nH]c2ncnc(C3=CCCCC3)c12	pIC50	7.21
CCOC(=O)c1c[nH]c2ncnc(-c3ccc4c(c3)NCC4)c12	pIC50	7.04
CCOC(=O)c1c[nH]c2ncnc(-c3cccc(NC(=O)/C=C/c4c[nH]c5ccccc45)c3)c12	pIC50	< 5.83
C=C(Br)C(=O)Nc1cccc(-c2ncnc3[nH]cc(C(=O)OCC)c23)c1	pIC50	6.05
C=CC(=O)Nc1cccc(-c2ncnc3[nH]cc(C(=O)OCC)c23)c1	pIC50	6.10
C=C(C)C(=O)Nc1ccc(F)c(-c2ncnc3[nH]cc(C(=O)OCC)c23)c1	pIC50	< 5.83
C=C(CN)C(=O)Nc1cccc(-c2ncnc3[nH]cc(C(=O)OCC)c23)c1	pIC50	< 5.83
CCOC(=O)c1c[nH]c2ncnc(-c3cccc(C)c3)c12	pIC50	6.84
C=C(C)C(=O)Nc1cccc(-c2ncnc3[nH]cc(-c4cccc(C)c4)c23)c1	pIC50	< 5.83
C=C(C)C(=O)Nc1cccc(-c2ncnc3[nH]cc(-c4cnco4)c23)c1	pIC50	< 5.83

// batch mode: one pIC50 value per listed entry
1. CCOC(=O)c1c[nH]c2ncnc(-c3cccc(NC(=O)C4(C)CO4)c3)c12 (centres unmarked)
2. C=C(C)C(=O)Nc1cccc(-c2ncnc3[nH]cc(-c4ccc(F)cc4)c23)c1

1: < 5.83; 2: < 5.83

// batch mode: one pIC50 value per listed entry
1. C=C(CNS(C)(=O)=O)C(=O)Nc1cccc(-c2ncnc3[nH]cc(C(=O)OCC)c23)c1
2. C=C(C)C(=O)Nc1cc(-c2ncnc3[nH]cc(C(=O)OCC)c23)ccc1S(C)(=O)=O

1: < 5.83; 2: < 5.83
